biological target: hαvβ8 (Homo sapiens, UniProt P06756+P26012); construct: The full extracellular domains for all α and β integrin subunits; (GGGS)3 linker (C); acidic coiled-coil with cysteine (C); GG-Avitag (C); hexa-histidine tag (C); basic coiled-coil with cysteine (C); made in house; host or cells: Expi293 cells; assay: Human AlphaLISA integrin-ligand blocking assay (LAP); assay type: biochemical; conditions: Table 11; read-out: IC50 Human integrin AlphaLISA assays hαvβ8
Sequence (P06756 31-992 limits assumed): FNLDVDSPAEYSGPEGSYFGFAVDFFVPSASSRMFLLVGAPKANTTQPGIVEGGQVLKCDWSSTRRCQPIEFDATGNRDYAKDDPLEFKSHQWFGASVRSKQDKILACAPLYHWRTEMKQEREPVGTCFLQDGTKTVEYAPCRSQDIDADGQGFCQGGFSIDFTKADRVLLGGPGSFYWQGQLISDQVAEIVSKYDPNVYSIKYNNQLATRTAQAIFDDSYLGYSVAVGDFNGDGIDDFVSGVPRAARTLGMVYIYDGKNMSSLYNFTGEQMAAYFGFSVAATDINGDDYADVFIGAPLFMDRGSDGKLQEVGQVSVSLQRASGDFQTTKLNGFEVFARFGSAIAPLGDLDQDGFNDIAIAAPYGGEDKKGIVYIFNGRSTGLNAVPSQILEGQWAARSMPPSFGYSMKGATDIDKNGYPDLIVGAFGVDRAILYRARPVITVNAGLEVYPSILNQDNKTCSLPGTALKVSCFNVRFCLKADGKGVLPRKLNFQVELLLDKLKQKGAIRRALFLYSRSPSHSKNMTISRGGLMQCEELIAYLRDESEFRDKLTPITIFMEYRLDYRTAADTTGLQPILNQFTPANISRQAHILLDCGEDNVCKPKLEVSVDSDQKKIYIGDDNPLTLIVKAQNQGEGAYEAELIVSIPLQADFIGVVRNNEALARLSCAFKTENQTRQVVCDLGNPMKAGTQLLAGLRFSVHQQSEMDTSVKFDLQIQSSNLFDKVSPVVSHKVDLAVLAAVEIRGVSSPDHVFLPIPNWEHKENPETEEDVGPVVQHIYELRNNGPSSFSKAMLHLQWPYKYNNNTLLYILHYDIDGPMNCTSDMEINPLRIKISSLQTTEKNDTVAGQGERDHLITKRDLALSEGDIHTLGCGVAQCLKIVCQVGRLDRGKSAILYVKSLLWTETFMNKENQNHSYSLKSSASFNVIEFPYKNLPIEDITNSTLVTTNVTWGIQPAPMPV
Sequence (P26012 43-684 limits assumed): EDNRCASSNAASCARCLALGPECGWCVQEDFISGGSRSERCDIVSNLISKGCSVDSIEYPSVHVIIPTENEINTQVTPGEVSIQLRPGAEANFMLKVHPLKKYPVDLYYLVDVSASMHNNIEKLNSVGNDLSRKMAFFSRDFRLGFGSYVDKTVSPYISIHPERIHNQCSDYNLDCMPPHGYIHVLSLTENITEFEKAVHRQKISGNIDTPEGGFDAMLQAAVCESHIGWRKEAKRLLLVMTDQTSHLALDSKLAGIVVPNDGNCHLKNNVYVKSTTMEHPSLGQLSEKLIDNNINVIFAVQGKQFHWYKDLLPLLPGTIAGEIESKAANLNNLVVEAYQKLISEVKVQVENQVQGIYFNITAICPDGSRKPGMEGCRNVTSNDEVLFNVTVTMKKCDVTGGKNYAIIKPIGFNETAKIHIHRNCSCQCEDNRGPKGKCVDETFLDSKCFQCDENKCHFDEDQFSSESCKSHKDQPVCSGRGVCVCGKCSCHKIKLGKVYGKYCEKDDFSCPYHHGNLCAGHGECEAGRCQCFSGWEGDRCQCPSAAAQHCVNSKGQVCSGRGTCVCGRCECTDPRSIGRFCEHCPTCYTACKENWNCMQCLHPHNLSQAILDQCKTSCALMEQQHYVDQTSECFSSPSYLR
reported.endpoint: IC50

COc1ccc([C@H](CC(=O)O)N2CCN(CCCc3ccc4c(n3)NCCC4)C2=O)cn1 | 3.1 nM

Where these numbers come from: patent US20250313635A1
